The reader will find reported Alkaline Phosphatase Increase - Index Value values listed item by item below.
Test system: Hepatotoxicity
assay remarks: FDA HLAED, alkaline phosphatase increase
assay context: human
Write the number on its own, no unit after it.

Use the examples below as a reference point.
molecule | subject of test | result
CO/N=C(\C(=O)N[C@@H]1C(=O)N2C(C(=O)O)=CCS[C@H]12)c1csc(N)n1 [CEFTIZOXIME] | Hepatotoxicity | 2.9
COc1cccc2c1C(=O)c1c(O)c3c(c(O)c1C2=O)C[C@@](O)(C(C)=O)C[C@@H]3O[C@H]1C[C@H](N)[C@H](O)[C@H](C)O1 [DAUNORUBICIN] | Hepatotoxicity | 0
CC1COc2c(N3CCN(C)CC3)c(F)cc3c(=O)c(C(=O)O)cn1c23 (centres undefined) [OFLOXACIN] | Hepatotoxicity | 1.2
CCOC(=O)/C=C(C)/C=C/C=C(C)/C=C/c1c(C)cc(OC)c(C)c1C [ETRETINATE] | Hepatotoxicity | 5.3
O=c1[nH]cc(F)c(=O)[nH]1 [FLUOROURACIL] | Hepatotoxicity | 5.5

// query Suppose we examine the molecule C[C@@H]1O[C@@H]1P(=O)(O)O [FOSFOMYCIN] ; what Alkaline Phosphatase Increase - Index Value value has been reported?
// result 0

// query What about CCCCNc1cc(C(=O)O)cc(S(N)(=O)=O)c1Oc1ccccc1 [BUMETANIDE] ?
// result 0

// query Next: CCCCCCCCCC(=O)CC(=O)O[C@H]1CC[C@H]2[C@@H]3CCC4=CC(=O)CC[C@]4(C)[C@H]3CC[C@]12C [TESTOSTERONE KETOLAURATE]
// result 0

// query Cool, now C[C@H](CS)C(=O)N1CCC[C@H]1C(=O)O [CAPTOPRIL]
// result 1.1

====

Test system: Hepatotoxicity
assay remarks: FDA HLAED, liver enzyme composite activity
assay context: human
outcome measure: Composite Activity - Score

Example results:
compound | subject of test | Composite Activity - Score
CCOC(=O)/C=C(C)/C=C/C=C(C)/C=C/c1c(C)cc(OC)c(C)c1C [ETRETINATE] | Hepatotoxicity | Active
CC(C)(C)NCC(O)COc1cccc2c1CC(O)C(O)C2 (centres undefined) | Hepatotoxicity | Inactive
CCCN1CCCC[C@H]1C(=O)Nc1c(C)cccc1C | Hepatotoxicity | Inactive
COc1cc2nc(N3CCN(C(=O)C4COc5ccccc5O4)CC3)nc(N)c2cc1OC (centres undefined) | Hepatotoxicity | Inactive
CNC(=C[N+](=O)[O-])NCCSCc1ccc(CN(C)C)o1 | Hepatotoxicity | Inactive
C[C@]12CC[C@@H]3c4ccc(O)cc4CC[C@H]3[C@@H]1CC[C@@H]2OC(=O)CCC1CCCC1 [ESTRADIOL CYPIONATE] | Hepatotoxicity | Inactive
CC1=C(C(=O)O)N2C(=O)[C@@H](NC(=O)[C@H](N)c3ccc(O)cc3)[C@H]2SC1 | Hepatotoxicity | Inactive
CC(C)(C#N)c1cc(Cn2cncn2)cc(C(C)(C)C#N)c1 | Hepatotoxicity | Active

Okay, now this compound:
// query Please look up its Composite Activity - Score: `CN(C/C=C/C#CC(C)(C)C)Cc1cccc2ccccc12`
// result Inactive

====

Test system: Hepatotoxicity
assay remarks: FDA HLAED, serum glutamic oxaloacetic transaminase (SGOT) increase
assay context: human
outcome measure: SGOT Increase - Number of Reports

Record excerpt, results attached:
compound | result
N#Cc1cc(NC(=O)C(=O)O)c(Cl)c(NC(=O)C(=O)O)c1 [LODOXAMIDE] | < 4
COc1cc(C(=O)NS(=O)(=O)c2ccccc2C)ccc1Cc1cn(C)c2ccc(NC(=O)OC3CCCC3)cc12 | >= 4
CC(=O)N(CC(O)CN(C(C)=O)c1c(I)c(C(=O)NCC(O)CO)c(I)c(C(=O)NCC(O)CO)c1I)c1c(I)c(C(=O)NCC(O)CO)c(I)c(C(=O)NCC(O)CO)c1I (configuration not stated) | < 4
CCCC(=O)Nc1ccc(OCC(O)CNC(C)C)c(C(C)=O)c1 (configuration not stated) | >= 4
CC(C)(C)NCC(O)c1ccc(O)c(CO)n1 (configuration not stated) | < 4
COC(=O)C1=C(C)NC(C)=C(C(=O)OC(C)C)C1c1cccc2nonc12 (configuration not stated) | >= 4
CCOC(=O)C1=C(C)NC(C)=C(C(=O)OC)C1c1cccc(Cl)c1Cl (configuration not stated) | < 4
CC(C)C[C@H]1C(=O)N2CCC[C@H]2[C@]2(O)O[C@](NC(=O)[C@@H]3C=C4c5cccc6[nH]c(Br)c(c56)C[C@H]4N(C)C3)(C(C)C)C(=O)N12 | < 4
CCN[C@@H]1C[C@H](N)[C@@H](O[C@H]2OC(CN)=CC[C@H]2N)[C@H](O)[C@H]1O[C@H]1OC[C@](C)(O)[C@H](NC)[C@H]1O | < 4
O=P1(N(CCCl)CCCl)NCCCO1 (configuration not stated) [CYCLOPHOSPHAMIDE ANHYDROUS] | >= 4

// query Form entry - test system: Hepatotoxicity; read-out: SGOT Increase - Number of Reports; compound: `CCCN1CCCC[C@H]1C(=O)Nc1c(C)cccc1C`
// result < 4

// query Try Clc1ccc(C(Cn2ccnc2)OCc2ccsc2Cl)c(Cl)c1 (configuration not stated) next.
// result < 4

// query And then `O=S(=O)([O-])CCS.[Na+]` , what is it?
// result < 4

// query Item: `CNS(=O)(=O)Cc1ccc2[nH]cc(CCN(C)C)c2c1`
// result >= 4

// query For CC(C(=O)O)c1ccc(C(=O)c2cccs2)cc1 (configuration not stated) then?
// result < 4

// query And what about the compound COc1ccc(OC)c(C(O)CNC(=O)CN)c1 (configuration not stated) ?
// result < 4

// query Let us now turn to OC(c1cc(C(F)(F)F)nc2c(C(F)(F)F)cccc12)C1CCCCN1 (configuration not stated)
// result >= 4

Recorded values, source ChEMBL document CHEMBL1697781.
